Can you tell me pKd for the items I'm about to list?
studyTarget: T1, biotinylated human DLL3 protein expressed as a human IgG1 fusion protein (human, UniProt Q9NYJ7 27-492, limits assumed, biotinylated)
T1 sequence: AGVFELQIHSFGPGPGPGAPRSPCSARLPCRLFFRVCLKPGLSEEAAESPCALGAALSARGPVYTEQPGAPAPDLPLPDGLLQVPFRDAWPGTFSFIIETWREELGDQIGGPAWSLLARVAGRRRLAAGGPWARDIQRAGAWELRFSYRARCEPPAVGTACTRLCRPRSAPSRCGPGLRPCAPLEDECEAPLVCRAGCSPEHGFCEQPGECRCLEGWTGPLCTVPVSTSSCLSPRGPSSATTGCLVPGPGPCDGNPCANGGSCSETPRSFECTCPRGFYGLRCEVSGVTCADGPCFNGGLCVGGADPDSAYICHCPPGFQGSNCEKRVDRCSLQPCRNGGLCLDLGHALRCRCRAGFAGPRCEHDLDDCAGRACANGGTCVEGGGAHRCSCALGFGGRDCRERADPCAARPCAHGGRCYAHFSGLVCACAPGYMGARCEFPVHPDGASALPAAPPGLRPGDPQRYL
measurementDescription: Octet BLI, single 50 nM
Give bare numbers, as −log10 of the molar value.

# map each binder to its pKd
1. 3B09 anti-DLL3 trispecific protein (other, not shown: linker 1808, anti-albumin sdAb, linker 1808, anti-CD3 fragment, His6 1819) EVQLVESGGGLVQPGGSLTLSCAASGSHVSFLSMAWYRQAPGKKRELVAGISANGSTDYIDSVKGRFTISRDNAKNSVYLQMNSLRAEDTAVYYCYAYRWTTRYAYWGQGTLVTVSS
2. 4G02 anti-DLL3 trispecific protein (other, not shown: linker 1808, anti-albumin sdAb, linker 1808, anti-CD3 fragment, His6 1819) EVQLVESGGGLVQPGGSLTLSCAASGSSVKFLSMAWYRQAPGKKRELVAGISRDGSTDYIDSVKGRFTISRDNAKNSVYLQMNSLRAEDTAVYYCYAYRWTTRHTYWGQGTLVTVSS

1: 7.70; 2: 7.82

Report pKd for 1E012 anti-DLL3 trispecific protein (other, not shown: linker 1808, anti-albumin sdAb, linker 1808, anti-CD3 fragment, His6 1819) EVQLVESGGGLVQPGGSLTLSCVASGSTSSTNAMGWYRRAPGKQRELVAGISSDGSKVYVDSVKGRFTISRDNAKNSVYLQMNSLRAEDTAVYYCYYFRTVSGSSMVYWGQGTLVTVSS please.
8.28
